The reported numbers originate from paper PMC10663500.

Target: T1, mouse programmed cell death protein 1 Fc fusion protein (mPD-1-Fc), mPD-1 C60S (aa 25-167) (Mus musculus, UniProt Q02242, stabilised)
T1 construct: not cleaved; source: Expi293F, purified (Protein A, SEC; dimeric fraction); not shown: Fc (human), C-terminal, kept
Assay: SPR; Carterra LSA; Fab from the ammonium sulfate precipitate of the culture supernatant immobilised on a NiHC200M chip; hPD-1 (1-1024 nM) or mPD-1-Fc (4-1024 nM) as analyte, fourfold dilution series, no regeneration; HBS-EP pH 7.4, 25 °C; medians over the spots of a construct, KD = koff/kon
Conditions: one partner purified
measured_quantity: koff (s⁻¹)

1) toripalimab Fab H.T55A (Fab, V domains shown, heavy chain of Sm3 with this change; numbers count from the chain's first residue; as the light chain of Sm3; source: Brevibacillus, culture supernatant (ammonium sulfate precipitate); not shown: 6xHis, C-terminal, kept; 6xHN, C-terminal, kept) VH: QGQLVQSGAEVKKPGASVKVSCKASGYTFTDYEMHWVRQAPIHGLEWIGVIESEAGGTAYNQKFKGRVTITADKSTSTAYMELSSLRSEDTAVYYCAREGITTVATTYYWYFDVWGQGTTVTVSS VL: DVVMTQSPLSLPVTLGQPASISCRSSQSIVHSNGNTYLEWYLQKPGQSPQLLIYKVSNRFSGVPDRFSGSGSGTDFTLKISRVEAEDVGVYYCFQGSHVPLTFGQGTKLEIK :: 0.0151
2) toripalimab Fab L.F94Y (Fab, V domains shown, as the heavy chain of Sm3; light chain of Sm3 with this change; numbers count from the chain's first residue; source: Brevibacillus, culture supernatant (ammonium sulfate precipitate); not shown: 6xHis, C-terminal, kept; 6xHN, C-terminal, kept) VH: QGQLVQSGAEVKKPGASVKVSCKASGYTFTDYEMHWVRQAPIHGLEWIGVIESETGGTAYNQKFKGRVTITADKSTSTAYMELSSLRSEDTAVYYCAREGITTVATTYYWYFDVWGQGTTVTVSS VL: DVVMTQSPLSLPVTLGQPASISCRSSQSIVHSNGNTYLEWYLQKPGQSPQLLIYKVSNRFSGVPDRFSGSGSGTDFTLKISRVEAEDVGVYYCYQGSHVPLTFGQGTKLEIK :: 0.0129
